Target: human histamine H4 receptor (Homo sapiens, UniProt Q9H3N8)
Construct: expressed in transfected cells; host or cells: SK-N-MC cells or COS7 cells, transiently transfected; membranes prepared
Test: Binding Assay on Recombinant Human Histamine H4 Receptor (3H-histamine competition, membranes of transfected SK-N-MC or COS7 cells); note: ligand 5 nM
Counter-ions that a name gives are not always drawn.
VALUE KIND: Ki (nM)

- COMPOUND: "Cc1cc(-c2nc3c(F)c(F)ccc3[nH]2)cnc1NCCCC1CCN(C)CC1"
  Ki (nM): 78
- COMPOUND: "Cc1cc(Cl)cc2[nH]c(-c3ccc(NCCCN4CCN(C)CC4)nc3)nc12"
  Ki (nM): 350
- COMPOUND: "Cc1cc(C)c2nc(-c3ccnc(NCCCCC4CCN(C)CC4)c3)[nH]c2c1"
  Ki (nM): 2
- COMPOUND: "COc1ccc2[nH]c(-c3ccc(NCCCC4CCN(C)CC4)nc3)nc2c1"
  Ki (nM): 500
- COMPOUND: "CN1CCC(CCCNc2ccc(-c3nc4c(Cl)cccc4[nH]3)cn2)CC1"
  Ki (nM): 2670

A. CC(C)N(CCCN1CCN(C)CC1)c1ccc(-c2nc3cc(Cl)ccc3[nH]2)cn1
B. Cc1cccc2[nH]c(-c3ccnc(NC(=O)CCCC4CCN(C)CC4)c3)nc12
Lab log: flag the item ( A or B ) with the smaller Ki figure. Select an item and report its label.
A
(A: 570 nM, B: 3330 nM)

A. Cc1cccc2[nH]c(-c3ccc(NCCCC4CCN(C)CC4)nc3)nc12
B. Cc1cc(C)c2nc(-c3ccnc(N(C)CCCCC4CCN(C)CC4)c3)[nH]c2c1 [Example 14, hydrochloride salt]
// pick larger Ki from pair: A vs B Select an item and report its label.
A
(A: 240 nM, B: 40 nM)

A. Cc1cc(Cl)cc2[nH]c(-c3ccnc(NCCCCC4CCN(C)CC4)c3)nc12
B. Cc1ccc2[nH]c(-c3ccc(N(CCCC4CCN(C)CC4)C(C)C)nc3)nc2c1C
Lab log: flag the item ( A or B ) with the smaller Ki figure. Select an item and report its label.
A

I. CN1CCC(CCCNc2ccc(-c3nc4cc(C(=O)c5ccccc5)ccc4[nH]3)cn2)CC1
II. Cc1cc(C)c2nc(-c3ccnc(NC(=O)CCCC4CCN(C)CC4)c3)[nH]c2c1
Lab log: flag the item ( I or II ) with the smaller Ki figure. Select an item and report its label.
II

----------
Molecular target: human histamine H4 receptor (Homo sapiens, UniProt Q9H3N8)
Construct: expressed in transfected cells; host or cells: SK-N-MC cells or COS7 cells, transiently transfected; membranes prepared
Assay: Binding Assay on Recombinant Human Histamine H4 Receptor (3H-histamine competition, membranes of transfected SK-N-MC or COS7 cells); note: ligand 5 nM
pKi: −log10 of the molar value.
VALUE KIND: pKi

1. Cc1c(F)ccc2[nH]c(-c3ccnc(NC(=O)CCCC4CCN(C)CC4)c3)nc12
2. Cc1cc(-c2nc3c(C)c(F)ccc3[nH]2)cnc1NCCCC1CCN(C)CC1
// pick larger pKi from pair: 1 vs 2 Select an item and report its label.
2
(2: 7.66, 1: 6.60)

----------
Biological target: human histamine H4 receptor (Homo sapiens)
Construct: expressed in transfected cells; host or cells: SK-N-MC cells or COS7 cells, transiently transfected; membranes prepared
Test: Binding Assay on Recombinant Human Histamine H4 Receptor (3H-histamine competition, membranes of transfected SK-N-MC or COS7 cells); note: ligand 5 nM
Method: SK-N-MC cells or COS7 cells were transiently transfected with pH4R and grown in 150 cm^2 tissue culture dishes. Cells were washed with saline solution, scraped with a cell scraper and collected by centrifugation (1000 rpm, 5 min). Cell membranes were prepared by homogenization of the cell pellet in 20 mM Tris-HCl with a polytron tissue homogenizer for 10 sec at high speed. […] Filters were then dried, mixed with scintillant and counted for radioactivity.
VALUE KIND: Ki (nM)

- COMPOUND: "CN1CCC(CCCNc2ccc(-c3nc4cc(F)ccc4[nH]3)cn2)CC1 [Example 32]"
  VALUE UNIT: "nM"
  Ki: 41
- COMPOUND: "CN1CCC(CCCNc2ccc(-c3nc4cc(C(C)(C)C)ccc4[nH]3)cn2)CC1 [Example 4]"
  VALUE UNIT: "nM"
  Ki: 9
- COMPOUND: "CN1CCC(CCCNc2ccc(-c3nc4c(F)c(F)ccc4[nH]3)cn2)CC1 [Example 29]"
  VALUE UNIT: "nM"
  Ki: 89
- COMPOUND: "Cc1c(F)ccc2[nH]c(-c3ccnc(NCCCCC4CCN(C)CC4)c3)nc12 [Example 16]"
  VALUE UNIT: "nM"
  Ki: 2
- COMPOUND: "Cc1cc(C)c2nc(-c3ccc(NCCCN4CCN(C)CC4)nc3)[nH]c2c1 [Example 33]"
  VALUE UNIT: "nM"
  Ki: 680

A. CN1CCC(CCCNc2ccc(-c3nc4cc(Cl)c(F)cc4[nH]3)cn2)CC1 [Example 26]
B. Cc1cccc2[nH]c(-c3ccnc(NCCCCC4CCN(C)CC4)c3)nc12 [Example 15]
// pick larger Ki from pair: A vs B Select an item and report its label.
A

a. Cc1ccc2[nH]c(-c3ccc(N(C)CCCC4CCN(C)CC4)nc3)nc2c1C [Example 27]
b. COC(=O)c1ccc2[nH]c(-c3ccc(NCCCC4CCN(C)CC4)nc3)nc2c1 [Example 8]
// pick larger Ki from pair: a vs b Select an item and report its label.
b

// provenance: patent US7589087B2
